# system: his-labeled human IL-13 (immunogen A) (human) (UniProt P35225)
# test-description: ELISA, biotin-immunogen A; antibody at 0.53 nM
measured-parameter: OD450 nm

INSERT INTO measurements (binder, recorded_value) VALUES
  ('c35E2C3 (mouse-human chimeric IL-13 antibody) (antibody, V domains shown) VH: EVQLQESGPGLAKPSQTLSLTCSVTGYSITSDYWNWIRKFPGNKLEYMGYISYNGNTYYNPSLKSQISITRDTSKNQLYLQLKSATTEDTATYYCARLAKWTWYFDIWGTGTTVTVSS VL: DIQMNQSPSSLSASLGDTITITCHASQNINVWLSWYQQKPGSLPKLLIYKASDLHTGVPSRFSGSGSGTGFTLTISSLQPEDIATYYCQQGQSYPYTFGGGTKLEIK', 1.63);
